Biological target: human RXFP1 (Homo sapiens, UniProt Q9HBX9)
Sequence (Q9HBX9 1-757): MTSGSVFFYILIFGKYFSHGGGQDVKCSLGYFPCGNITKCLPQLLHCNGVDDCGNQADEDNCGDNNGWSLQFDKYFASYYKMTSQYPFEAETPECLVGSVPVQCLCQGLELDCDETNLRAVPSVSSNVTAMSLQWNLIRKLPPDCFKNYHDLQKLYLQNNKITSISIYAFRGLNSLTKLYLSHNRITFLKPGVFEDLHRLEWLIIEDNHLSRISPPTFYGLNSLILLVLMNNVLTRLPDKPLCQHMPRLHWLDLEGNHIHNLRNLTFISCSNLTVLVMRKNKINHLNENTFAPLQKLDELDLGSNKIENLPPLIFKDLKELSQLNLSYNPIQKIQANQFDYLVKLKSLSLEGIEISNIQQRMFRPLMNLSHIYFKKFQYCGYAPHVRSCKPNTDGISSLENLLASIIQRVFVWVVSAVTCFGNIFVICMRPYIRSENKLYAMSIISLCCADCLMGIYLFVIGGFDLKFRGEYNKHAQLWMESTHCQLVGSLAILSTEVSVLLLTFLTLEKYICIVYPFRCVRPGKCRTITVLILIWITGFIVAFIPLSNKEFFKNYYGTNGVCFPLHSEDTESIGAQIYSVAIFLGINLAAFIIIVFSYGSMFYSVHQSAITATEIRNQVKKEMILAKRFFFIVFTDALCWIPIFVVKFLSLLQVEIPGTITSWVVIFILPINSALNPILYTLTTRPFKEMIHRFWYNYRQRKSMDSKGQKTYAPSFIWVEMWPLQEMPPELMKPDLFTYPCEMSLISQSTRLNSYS
Test: human RXFP1 (hRXFP1) HEK293 cAMP assay (HTRF)
Details: HEK293 cells stably expressing human RXFP1, 30 min at room temperature
readout.kind: EC50
For clarity, give the value followed by its unit.

- compound: "COc1ccc(-c2cc(C(=O)O)ccc2F)nc1C(=O)N[C@@H]1C2CCC(C2=C(C)C)[C@@H]1C(=O)Nc1ccc(F)c(C(F)(F)F)c1 (some centres unmarked)"
  EC50: "2400 nM"
- compound: "COc1ncc(C2=NOC3CC(CO)CC23)cc1C(=O)N[C@@H]1C2CCC(/C2=C/c2csc(C)n2)[C@@H]1C(=O)N[C@H](C)C1(C)CC1 (some centres unmarked)"
  EC50: "3.2 nM"
- compound: "COc1ncc(-c2cc([C@H](OC(=O)NC3CCC3)C(F)(F)F)ccc2F)cc1C(=O)N[C@H]1[C@@H](C(=O)N[C@H](C)C2(C)CC2)[C@H]2CC[C@@H]1/C2=C\\C1CC(F)(F)C1"
  EC50: "0.5 nM"
- compound: "COc1ncc(-c2cc(C(=O)O)ccc2F)cc1C(=O)N[C@@H]1C2CCC(/C2=C/c2ccccc2)[C@@H]1C(=O)Nc1ccc(F)c(C(F)(F)F)c1 (some centres unmarked)"
  EC50: "33 nM"
- compound: "CC1(C)Cc2cc(C3=NOC4CC(O)(C(F)(F)F)CC34)cc(C(=O)N[C@@H]3C4CCC(/C4=C/C4CCCC4)[C@@H]3C(=O)Nc3ccc(F)c(C(F)(F)F)c3)c2O1 (single isomer, unassigned)"
  EC50: "2.2 nM"
- compound: "O=C(O)c1ccc(F)c(C23COC(C(=O)N[C@H]4[C@@H](C(=O)Nc5ccc(F)c(C(F)(F)F)c5)[C@H]5CC[C@@H]4/C5=C\\C(F)(F)F)(C2)C3)c1"
  EC50: "2300 nM"
- compound: "COc1ncc(C2=NOC3CC(C)(CO)CC23)cc1C(=O)N[C@H]1[C@@H](C(=O)N[C@H](C)C2(C)CC2)[C@H]2CC[C@@H]1/C2=C\\C1CC1 (some centres unmarked)"
  EC50: "3.3 nM"
- compound: "COc1cc2c(cc1C(=O)N[C@@H]1C3CCC(/C3=C/C3CC3)[C@@H]1C(=O)Nc1ccc(F)c(C(F)(F)F)c1)CN(CCCO)CC2 (some centres unmarked)"
  EC50: "240 nM"

Required: EC50, one value per compound below.
1. COc1ccc(-c2ccc(C(=O)O)cc2)nc1C(=O)N[C@@H]1C2CCC(C2=C(C)C)[C@@H]1C(=O)Nc1ccc(F)c(C(F)(F)F)c1 (some centres unmarked)
2. COc1ncc(-c2cnc3n2CC(O)CC3)cc1C(=O)N[C@H]1[C@@H](C(=O)Nc2ccc(F)c(C(F)(F)F)c2)[C@H]2CC[C@@H]1/C2=C\C1CC1 (some centres unmarked) [Example 103]
3. CC(O)C1CC2ON=C(c3cc4c(c(C(=O)N[C@H]5[C@@H](C(=O)N[C@H](C)C6(C)CC6)[C@H]6CC[C@@H]5/C6=C\C5CC5)c3)OC(C)(C)C4)C2C1 (some centres unmarked)

Return:
1: 1700 nM; 2: 3.4 nM; 3: 6 nM
